Let's look at some binders and their measured % fast.
Target: T1, recombinant human VEGF165 (human, UniProt P15692-4 27-191)
T1 construct: also called hVEGF165; rhVEGF165
T1 sequence (P15692 other isoform, or with tags, fused parts or gaps limits assumed): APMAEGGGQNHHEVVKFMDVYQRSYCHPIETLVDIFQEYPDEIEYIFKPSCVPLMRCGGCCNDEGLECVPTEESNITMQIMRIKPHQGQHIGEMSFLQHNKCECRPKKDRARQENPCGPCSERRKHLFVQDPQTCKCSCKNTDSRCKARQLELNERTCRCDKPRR
Assay: Biacore, periplasmic extract on hVEGF165 chip, two phase decay fit
Write the number in % without appending the unit.

Would you please look over these solved cases?
| binder | % fast [%] |
| --- | --- |
| VEGFBII60A09 (VHH, periplasmic extract) VHH: EVQLVESGGGLVQPGDSLKLSCAFSGRTFSSYSMGWFRQAQGKEREFVVAISSSGGYIYDSVSLEGRFTISRDNTRNTVYLQTPSLKPEDTADYYCAASRAYGSSRLRLADTYDYWGQGTQVTVSS | 20 |
| VEGFBII62A09 (VHH, periplasmic extract) VHH: EVQLVESGGDLVQPGDSLKLSCAASGRTFSSYSMGWFRQAQGKEREFVVAISSSGGYIYDSVSLEGRFTISRDNTKNTVYLQTPSLKPEDTAVYYCAASRAYGSSRLRLADTYDYWGQGTQVTVSS | 23 |
| VEGFBII23A08 (VHH, periplasmic extract) VHH: EVQLVESGGGLVQTGDSLRLSCVASGRTFSSYSMGWFRQAQGKEREFVVAISNGGYKYDSVSLEGRFTISRDNTKNTVYLQINSLKPEDTAVYYCAASRAYGSSRLRLADTYDYWGQGTQVTVSS | 19 |
| VEGFBII30E07 (VHH, periplasmic extract) VHH: EVQLVESGGGLVQAGDSLRLSCAASGRTFSSYSMGWFRQAQGKEREFVVAISSSGNYKYDSVSLEGRFTISRDNTKNTVYLQINSLKPEDTAVYYCAASRAYGSSRLRLGDTYDYWGQGTRVTVSS | 29 |
| VEGFBII42A05 (VHH, periplasmic extract) VHH: EVQLVESGGGLVQPGDSLKLSCAFSGRTFSSYSMGWFRQAQGKEREFVVAISSSGGYIYDSVSLEGRFTISRDNTKNTVYLQMPSLKPEDTADYYCAASRAYGSSRLRLADTYDYWGQGTQVTVSS | 25 |
| VEGFBII27D08 (VHH, periplasmic extract) VHH: EVQLVESGGGLVQTGDSLRLSCAASGRTFSSYSMGWFRQAQGKEREFVVAISSGGYKYDSVSLEGRFTISRDNTQNTVYLQINSLKPEDTAVYYCAASRAYGSGRLRLADTYDYWGQGTQVTVSS | 13 |
| VEGFBII42D05 (VHH, periplasmic extract) VHH: EVQLVESGGGLVQPGDSLKLSCAFSGRTFSSYSMGWFRQAQGKEREFVVAISSSGGYIYDSVSLEGRFTISRDNTKNTVYLQTPSLKPEDTAVYYCAASRAYGSSRLRLADTYDYWGQGTQVTVSS | 26 |

# ---- query binder ----
Input: Which % fast reading was recorded for the binder VEGFBII23E05 (VHH, periplasmic extract) VHH: EVQLVESEGGLVQPGDSLKLSCVASGRTSSSYSMGWFRQAQGKEREFVVAISSGGYIYDSVSLQGRFTISRDNTKNTVYLQTPSLKPEDTAVYYCAASRAYGSSRLRLADTYDYWGQGTQVTVSS ?
Output: 18
